system: Crude diglycosidase; experiment: Examination of temperature in the conversion into isoflavone aglycons by diglycosidase using soybean materials; assay type: biochemical, Penicillium multicolor IAM7153; parameters: concentration or dose not given beside the values; settings: 80 °C; heat treatment of enzyme: no; 6 h
property.label: Decomposition efficiency of glycitin family in roasted soy flour (%)

In [3]: df
Out[3]:
                                chem_smiles  value_measured
0  COc1cc2c(=O)c(-c3ccc(O)cc3)coc2cc1O[C@@H]1O[C@H](COC(C)=O)[C@@H](O)[C@H](O)[C@H]1O            35.7
1  COc1cc2c(=O)c(-c3ccc(O)cc3)coc2cc1O[C@@H]1O[C@H](CO)[C@@H](O)[C@H](O)[C@H]1O            33.6
2       COc1cc2c(=O)c(-c3ccc(O)cc3)coc2cc1O            30.7
